Reported CC50 at 5 days values follow for various compounds
test: Cytotoxicity assays; type: cell-based; conditions: human, HG23 and Huh-7 cells

# compound, CC50 at 5 days
measured = [
    ("NC(=O)c1ncn([C@@H]2O[C@H](CO)[C@@H](O)[C@H]2O)n1 [RBV, ribavirin, reference compound]", "> 200 µM"),
    ("O=c1nc(NO)ccn1[C@@H]1O[C@H](CO)[C@@H](O)[C@H]1O [NHC]", "> 100 µM"),
    ("Nc1ccn([C@@H]2CS[C@H](CO)O2)c(=O)n1 [3TC, reference compound]", "> 100 µM"),
    ("C[C@@]1(F)[C@H](O)[C@@H](CO)O[C@H]1n1ccc(N)nc1=O [2′-F-2′-C-MeC]", "> 100 µM"),
    ("C[C@@]1(O)[C@H](O)[C@@H](CO)O[C@H]1n1ccc(N)nc1=O [2′-C-MeC]", "> 100 µM"),
]

----------
system: MNV (MNV-1.CW3); test: MNV assay: MNV RNA levels by RT-qPCR in RAW 264.7 cells; assay type: cell-based, murine norovirus; conditions: Norwalk virus, RAW264.7, read-out: EC50, concentration required to reduce MNV RNA copy number by 50%
Reported EC50 values follow for various compounds

# compound, tested.on, EC50
records = [
    ("NC(=O)c1ncn([C@@H]2O[C@H](CO)[C@@H](O)[C@H]2O)n1 [RBV, ribavirin, reference compound]", "MNV (MNV-1.CW3)", "63.5 µM"),
    ("C[C@@]1(O)[C@H](O)[C@@H](CO)O[C@H]1n1ccc(N)nc1=O", "MNV (MNV-1.CW3)", "6.9 µM"),
    ("O=c1nc(NO)ccn1[C@@H]1O[C@H](CO)[C@@H](O)[C@H]1O", "MNV (MNV-1.CW3)", "8.8 µM"),
    ("C[C@@]1(F)[C@H](O)[C@@H](CO)O[C@H]1n1ccc(N)nc1=O", "MNV (MNV-1.CW3)", "12.7 µM"),
]

----------
system: MNV (MNV-1.CW3); assay: MNV assay: MNV RNA levels by RT-qPCR in RAW 264.7 cells; assay type: cell-based, murine norovirus; details: RAW 264.7 cells

# molecule, tested.on, SI (CC50/EC50), MNV
rows = [
    ("C[C@@]1(O)[C@H](O)[C@@H](CO)O[C@H]1n1ccc(N)nc1=O", "MNV (MNV-1.CW3)", ">14.6"),
    ("O=c1nc(NO)ccn1[C@@H]1O[C@H](CO)[C@@H](O)[C@H]1O", "MNV (MNV-1.CW3)", ">11.4"),
    ("NC(=O)c1ncn([C@@H]2O[C@H](CO)[C@@H](O)[C@H]2O)n1 [RBV, ribavirin, reference compound]", "MNV (MNV-1.CW3)", ">1.6"),
    ("C[C@@]1(F)[C@H](O)[C@@H](CO)O[C@H]1n1ccc(N)nc1=O", "MNV (MNV-1.CW3)", ">7.9"),
]

----------
system: MNV (MNV-1.CW3); assay: MNV assay: MNV infectivity by TCID50 in RAW 264.7 cells; type: cell-based, murine norovirus; conditions: Norwalk virus, RAW264.7, 12 h, read-out: IC50, MNV infectivity
measurement.name: IC50 (µM)

# compound, tested.on, measurement.name, recorded.value
records = [
    ("C[C@@]1(F)[C@H](O)[C@@H](CO)O[C@H]1n1ccc(N)nc1=O [2′-F-2′-C-MeC]", "MNV (MNV-1.CW3)", "IC50", 33.9),
]

----------
test system: NV replicon (HG23 cells); test: Norwalk virus replicon assay: NV RNA by RT-qPCR in HG23 cells; type: cell-based; details: HG23 cells
measurement.name: SI / therapeutic index (CC50/EC50), NV replicon

# compound, recorded.value
rows = [
    ("C[C@@]1(O)[C@H](O)[C@@H](CO)O[C@H]1n1ccc(N)nc1=O [2′-C-MeC]", "> 77.5"),
    ("NC(=O)c1ncn([C@@H]2O[C@H](CO)[C@@H](O)[C@H]2O)n1 [RBV, ribavirin, reference compound]", ">5.0"),
    ("C[C@@]1(F)[C@H](O)[C@@H](CO)O[C@H]1n1ccc(N)nc1=O [2′-F-2′-C-MeC]", "> 31.4"),
    ("O=c1nc(NO)ccn1[C@@H]1O[C@H](CO)[C@@H](O)[C@H]1O [NHC]", "> 68.0"),
]

----------
tested on: NV replicon (HG23 cells); assay: Norwalk virus replicon assay: NV RNA by RT-qPCR in HG23 cells; type: cell-based; settings: Norwalk virus, HG23, read-out: EC50, concentration required to reduce NV RNA copy number in HG23 cells by 50%, RT-qPCR
pEC50: −log10 of the molar value.

# molecule, pEC50
measured = [
    ("O=c1nc(NO)ccn1[C@@H]1O[C@H](CO)[C@@H](O)[C@H]1O", 5.82),
    ("NC(=O)c1ncn([C@@H]2O[C@H](CO)[C@@H](O)[C@H]2O)n1 [RBV, ribavirin, reference compound]", 4.40),
    ("C[C@@]1(F)[C@H](O)[C@@H](CO)O[C@H]1n1ccc(N)nc1=O", 5.49),
    ("C[C@@]1(O)[C@H](O)[C@@H](CO)O[C@H]1n1ccc(N)nc1=O", 5.89),
]
